Molecular target: Steroidogenic factor 1 (Homo sapiens, UniProt Q13285)
Sequence (Q13285 whole entry): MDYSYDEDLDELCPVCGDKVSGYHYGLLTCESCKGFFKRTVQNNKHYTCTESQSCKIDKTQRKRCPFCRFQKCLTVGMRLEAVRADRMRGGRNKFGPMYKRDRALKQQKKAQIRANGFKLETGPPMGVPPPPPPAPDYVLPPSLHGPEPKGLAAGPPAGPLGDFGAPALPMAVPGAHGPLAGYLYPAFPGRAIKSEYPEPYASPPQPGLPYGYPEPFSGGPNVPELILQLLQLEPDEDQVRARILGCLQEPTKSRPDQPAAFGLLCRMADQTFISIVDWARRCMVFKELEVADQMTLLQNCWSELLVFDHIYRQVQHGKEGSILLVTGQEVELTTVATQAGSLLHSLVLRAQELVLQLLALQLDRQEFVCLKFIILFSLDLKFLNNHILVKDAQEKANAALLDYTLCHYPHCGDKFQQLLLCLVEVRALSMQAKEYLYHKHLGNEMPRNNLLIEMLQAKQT
Assay: Agonist activity at human SF-1 assessed as DAX1 1-23 peptide recruitment by TR-FRET assay relative to control
Calls of active or inactive are those of the source. No cut-off for these calls is given here.

{"columns": ["molecule", "assayed target", "pEC50"],
 "data": [
  ["C=C(c1ccccc1)[C@@]12C[C@@H](OC(C)=O)C[C@@H]1CC(CCCCCC)=C2c1ccccc1 (racemic)", "Steroidogenic factor 1 (Homo sapiens, UniProt Q13285)", "inactive"],
  ["C=C(CCCCCCCC)[C@@]12CCC[C@@H]1CC(CCCCCC)=C2c1ccccc1 (racemic)", "Steroidogenic factor 1 (Homo sapiens, UniProt Q13285)", "inactive"],
  ["C=C(c1ccccc1)[C@@]12CCC[C@@H]1CC(CCCCCC)=C2CCCCCC (racemic)", "Steroidogenic factor 1 (Homo sapiens, UniProt Q13285)", "inactive"]
]}

###

Target: Steroidogenic factor 1 (Mus musculus) (UniProt P33242)
Sequence (P33242 whole entry): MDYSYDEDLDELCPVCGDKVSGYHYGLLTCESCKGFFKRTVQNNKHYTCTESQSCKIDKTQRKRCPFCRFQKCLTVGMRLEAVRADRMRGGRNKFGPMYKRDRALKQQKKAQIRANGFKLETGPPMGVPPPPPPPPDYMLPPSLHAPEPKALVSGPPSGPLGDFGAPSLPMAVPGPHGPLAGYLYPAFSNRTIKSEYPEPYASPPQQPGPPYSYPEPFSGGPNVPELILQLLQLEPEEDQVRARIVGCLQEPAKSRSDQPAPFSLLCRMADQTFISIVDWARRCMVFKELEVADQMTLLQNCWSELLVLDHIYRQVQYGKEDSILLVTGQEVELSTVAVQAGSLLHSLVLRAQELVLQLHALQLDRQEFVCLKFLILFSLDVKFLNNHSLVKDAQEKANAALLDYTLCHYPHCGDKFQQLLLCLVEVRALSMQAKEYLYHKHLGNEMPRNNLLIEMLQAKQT
Assay: Agonist activity at mouse SF-1 expressed in HEK293 cells assessed as increase in SHP mRNA levels at 10 uM after 24 hrs by RT-qPCR method
Assay type: functional, cell-based
The source made the active and inactive calls. No cut-off for these calls is given here.
Form entry, call: pick from class 1 for active, class 0 for inactive

{"columns": ["molecule", "answer label"],
 "data": [
  ["C=C(c1ccccc1)[C@@]12CC[C@@H](O)[C@@H]1CC(CCCCCC)=C2c1ccccc1 (racemic)", "class 1"],
  ["C=C(c1ccccc1)[C@@]12CN(C)C[C@@H]1CC(CCCCCC)=C2c1ccccc1 (racemic)", "class 1"],
  ["C=C(c1ccccc1)[C@@]12CCC[C@@H]1CC(CCCCCC)=C2CCCO (racemic)", "class 0"]
]}

Continue with the molecule presented below.
Hi, sorry to bother you, what did the test record for C=C(CCCC)[C@@]12CCC[C@@H]1CC(CCCCCC)=C2c1ccccc1 (racemic) ?
class 0

###

Target: Steroidogenic factor 1 (Homo sapiens, UniProt Q13285)
Test: Agonist activity at human SF-1 assessed as DAX1 1-23 peptide recruitment by TR-FRET assay
Assay type: functional
endpoint: Ratio

{"columns": ["molecule", "Ratio"],
 "data": [
  ["CCCCCCC1=C(c2ccccc2)[C@]2(OCC(C)CC)CCC[C@@H]2C1 (mixture of isomers)", 0.56],
  ["C=C(c1ccccc1)[C@@]12CCC[C@@H]1CC(CCCCCC)=C2C1CCCCC1 (racemic)", 0.59],
  ["C=C(c1ccccc1)[C@@]12CCC[C@@H]1CC([Si](C)(C)c1ccccc1)=C2c1ccccc1 (racemic)", 0.33]
]}
